- assay details: Metabolic stability in human serum assessed as amount of parent compound remaining at 25 to 100 uM at 37 degC after 1 hr by LC-MS analysis
- Format: ADME, cell-free
- condition description: read-out: Stability
reported metric: remaining at 1 h, up to 100 µM (%)

I = CC(C)C[C@H](NC(=O)OCc1ccccc1)C(=O)N[C@@H](C[C@@H]1CCNC1=O)C(O)S(=O)(=O)O (stereo not given in full)
II = O=C(N[C@@H](CC1CCCCC1)C(=O)N[C@@H](C[C@@H]1CCNC1=O)C(O)S(=O)(=O)O)OCc1cccc(Cl)c1 (stereo not given in full)
III = CCC(=O)OC([C@H](C[C@@H]1CCNC1=O)NC(=O)[C@H](CC1CCCCC1)NC(=O)OCc1cccc(Cl)c1)S(=O)(=O)[O-].[Na+] (stereo not given in full)
*Q* Rank the items in ascending order with respect to remaining at 1 h, up to 100 µM. Put the labels in the order asked and list them.
*A* II, I, III
(II: 0%, I: 2%, III: 52%)

I = CCCCCC(=O)OC([C@H](C[C@@H]1CCNC1=O)NC(=O)[C@H](CC1CCCCC1)NC(=O)OCc1cccc(Cl)c1)S(=O)(=O)O (stereo not given in full)
II = CC(=O)OC([C@H](C[C@@H]1CCNC1=O)NC(=O)[C@H](CC1CCCCC1)NC(=O)OCc1cccc(Cl)c1)S(=O)(=O)[O-].[Na+] (stereo not given in full)
*Q* Parameter metric = remaining at 1 h, up to 100 µM. Return the lower-valued option from I and II . Answer with the label corresponding to your selection.
*A* II
(II: 56%, I: 103%)

---

- assay details: Metabolic stability in mouse serum assessed as amount of parent compound remaining at 25 to 100 uM at 37 degC after 1 hr by LC-MS analysis
- Type: ADME, cell-free
- condition description: read-out: Stability
reported metric: remaining at 1 h, up to 100 µM (%)

For orientation, consider the following solved cases.
[[record]]
molecule = "O=C(N[C@@H](CC1CCCCC1)C(=O)N[C@@H](C[C@@H]1CCNC1=O)C(O)S(=O)(=O)O)OCc1cccc(Cl)c1 (stereo not given in full)"
measurement_units = "%"
result_value = 0

[[record]]
molecule = "CCC(=O)OC([C@H](C[C@@H]1CCNC1=O)NC(=O)[C@H](CC1CCCCC1)NC(=O)OCc1cccc(Cl)c1)S(=O)(=O)[O-].[Na+] (stereo not given in full)"
measurement_units = "%"
result_value = 0

[[record]]
molecule = "CC(C)C[C@H](NC(=O)OCc1ccccc1)C(=O)N[C@@H](C[C@@H]1CCNC1=O)C(O)S(=O)(=O)O (stereo not given in full)"
measurement_units = "%"
result_value = 18


1 = CCCCCC(=O)OC([C@H](C[C@@H]1CCNC1=O)NC(=O)[C@H](CC1CCCCC1)NC(=O)OCc1cccc(Cl)c1)S(=O)(=O)O (stereo not given in full)
2 = CC(=O)OC([C@H](C[C@@H]1CCNC1=O)NC(=O)[C@H](CC1CCCCC1)NC(=O)OCc1cccc(Cl)c1)S(=O)(=O)[O-].[Na+] (stereo not given in full)
*Q* // which entry has the larger remaining at 1 h, up to 100 µM value, 1 or 2 ? Answer with the label corresponding to your selection.
*A* 1

---

- assay details: Metabolic stability of mouse liver microsomes assessed as amount of parent compound remaining at 25 to 100 uM after 1 hr in the presence of NADPH by LC-MS method
- Format: ADME, microsome
- condition description: read-out: Stability
reported metric: remaining at 1 h, up to 100 µM (%)

[[record]]
molecule = "CC(C)C[C@H](NC(=O)OCc1ccccc1)C(=O)N[C@@H](C[C@@H]1CCNC1=O)C(O)S(=O)(=O)O (stereo partly drawn)"
reported_metric = "remaining at 1 h, up to 100 µM"
result_value = 82


a = CC(=O)OC([C@H](C[C@@H]1CCNC1=O)NC(=O)[C@H](CC1CCCCC1)NC(=O)OCc1cccc(Cl)c1)S(=O)(=O)[O-].[Na+] (stereo partly drawn)
b = O=C(N[C@@H](CC1CCCCC1)C(=O)N[C@@H](C[C@@H]1CCNC1=O)C(O)S(=O)(=O)O)OCc1cccc(Cl)c1 (stereo partly drawn)
*Q* // which entry has the larger remaining at 1 h, up to 100 µM value, a or b ? Answer with the label corresponding to your selection.
*A* b

---

- Test system: Norovirus
- assay details: Antiviral activity against Norovirus infected in human HG23 cells assessed as inhibition of viral replication after 48 hrs by quantitative RT-PCR method
- Assay type: functional, cell-based
- condition description: HG23, 48 h
reported metric: EC50 (nM)

For orientation, consider the following solved cases.
[[record]]
compound = "CC(=O)OC([C@H](C[C@@H]1CCNC1=O)NC(=O)[C@H](CC1CCCCC1)NC(=O)OCc1cccc(Cl)c1)S(=O)(=O)[O-].[Na+] (stereo partly drawn)"
result_value = 30

[[record]]
compound = "COC(=O)C(NC(=O)OC([C@H](C[C@@H]1CCNC1=O)NC(=O)[C@H](CC(C)C)NC(=O)OCc1ccccc1)S(=O)(=O)O)C(C)C (stereo partly drawn)"
result_value = 400

[[record]]
compound = "CC(=O)OC([C@H](C[C@@H]1CCNC1=O)NC(=O)[C@H](CC(C)C)NC(=O)OCc1ccccc1)S(=O)(=O)O (stereo partly drawn)"
result_value = 600

[[record]]
compound = "COC(=O)C(C)NC(=O)OC([C@H](C[C@@H]1CCNC1=O)NC(=O)[C@H](CC1CCCCC1)NC(=O)OCc1ccccc1)S(=O)(=O)O (stereo partly drawn)"
result_value = 200

[[record]]
compound = "CCCCCCCC(=O)OC([C@H](C[C@@H]1CCNC1=O)NC(=O)[C@H](CC(C)C)NC(=O)OCc1ccccc1)S(=O)(=O)O (stereo partly drawn)"
result_value = 500


1 = CC(=O)OC([C@H](C[C@@H]1CCNC1=O)NC(=O)[C@H](CC1CCCCC1)NC(=O)OCc1ccccc1)S(=O)(=O)O (stereo partly drawn)
2 = CC(C)C[C@H](NC(=O)OCc1ccccc1)C(=O)N[C@@H](C[C@@H]1CCNC1=O)C(OC(=O)C(C)C)S(=O)(=O)O (stereo partly drawn)
3 = CC(C)C(=O)OC([C@H](C[C@@H]1CCNC1=O)NC(=O)[C@H](CC1CCCCC1)NC(=O)OCc1cccc(Cl)c1)S(=O)(=O)O (stereo partly drawn)
*Q* Hello, I need these entries ordered by EC50, highest reading first. Thanks! Put the labels in the order asked and list them.
*A* 2, 1, 3

1 = COC(=O)C(NC(=O)OC([C@H](C[C@@H]1CCNC1=O)NC(=O)[C@H](CC1CCCCC1)NC(=O)OCc1cccc(Cl)c1)S(=O)(=O)O)C(C)C (stereo partly drawn)
2 = CCCC(=O)OC([C@H](C[C@@H]1CCNC1=O)NC(=O)[C@H](CC(C)C)NC(=O)OCc1ccccc1)S(=O)(=O)O (stereo partly drawn)
3 = CCC(=O)OC([C@H](C[C@@H]1CCNC1=O)NC(=O)[C@H](CC(C)C)NC(=O)OCc1ccccc1)S(=O)(=O)O (stereo partly drawn)
4 = O=C[C@H](C[C@@H]1CCNC1=O)NC(=O)[C@H](CC1CCCCC1)NC(=O)OCc1cccc(Cl)c1
*Q* Hello, I need these entries ordered by EC50, highest reading first. Thanks! Put the labels in the order asked and list them.
*A* 2, 3, 1, 4
